pIC50: −log10 of the molar value.
Heads up, these molecules all have pIC50 values measured for Gag-Pol polyprotein [1148-1435] (Human immunodeficiency virus 1).

What pIC50 value was documented for this molecule, "Cn1nc(Cc2ccc(F)cc2)nc1-c1ncc2cccnc2c1O" ?
< 3.30

Please answer likewise for "O=S1(=O)CCCCN1c1nc(-c2noc(Cc3ccc(F)cc3)n2)c(O)c2ncccc12"
< 4.00

Please answer likewise for "Oc1c(-c2noc(-c3ccccc3)n2)ncc2cccnc12"
< 4.00

Please answer likewise for "O=C(NCc1ccc(F)cc1)c1nc(N2CCCCS2(=O)=O)c2cccnc2c1O"
7.89

Value source: BindingDB's records for doi:10.1016/j.bmcl.2009.01.090
